Reported values of Papp A→B for individual entries
Assay: Apparent permeability across apical to basolateral side in human Caco2 cells measured after 1 to 2 hrs by LC-MS/MS analysis
Details: Caco-2
TEST_READOUT: Papp A→B (×10⁻⁶ cm/s)

{"STRUCTURE": "CCCC[C@](C)(CO)Nc1nc(N)nc2cc(C)cnc12", "TEST_READOUT": "Papp A→B", "REPORTED_RESULT": 31}
{"STRUCTURE": "CCCC[C@](C)(CO)Nc1nc(N)nc2cc(F)cnc12", "TEST_READOUT": "Papp A→B", "REPORTED_RESULT": 7.9}
{"STRUCTURE": "CCCC[C@@](C)(CO)Nc1nc(N)nc2cccnc12", "TEST_READOUT": "Papp A→B", "REPORTED_RESULT": 32}
{"STRUCTURE": "CCCC[C@](C)(CO)Nc1nc(N)nc2cccnc12", "TEST_READOUT": "Papp A→B", "REPORTED_RESULT": 29}
